target: Torsin-1A-interacting protein 1 (Homo sapiens) (UniProt Q5JTV8); assay: compound microarray binding of lysate hLAP1 – cell lysate, small-molecule microarray, COS7 lysate, 635/667 nm fluorescence, primary screen (AID 1116); details: 635 nm fluorescence, higher = more signal
Sequence (Q5JTV8 whole entry, looked up): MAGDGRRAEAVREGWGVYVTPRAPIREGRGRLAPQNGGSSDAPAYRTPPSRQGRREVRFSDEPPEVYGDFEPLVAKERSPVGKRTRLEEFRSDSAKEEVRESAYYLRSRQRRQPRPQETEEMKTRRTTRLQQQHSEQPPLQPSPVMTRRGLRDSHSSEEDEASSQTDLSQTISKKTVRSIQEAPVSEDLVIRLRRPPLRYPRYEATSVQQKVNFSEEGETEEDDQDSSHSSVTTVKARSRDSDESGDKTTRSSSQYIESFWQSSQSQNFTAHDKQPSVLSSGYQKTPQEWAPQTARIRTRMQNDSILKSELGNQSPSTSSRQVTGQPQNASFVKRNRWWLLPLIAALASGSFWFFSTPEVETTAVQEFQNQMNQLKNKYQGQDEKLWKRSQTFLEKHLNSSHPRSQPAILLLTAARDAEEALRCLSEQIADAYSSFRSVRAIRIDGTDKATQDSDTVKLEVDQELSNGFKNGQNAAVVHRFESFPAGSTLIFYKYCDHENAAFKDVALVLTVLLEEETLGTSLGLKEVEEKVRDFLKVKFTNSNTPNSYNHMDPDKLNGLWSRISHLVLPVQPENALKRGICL
Please go through the items and note down their composite z-score.
Answers are plain numbers.

Solved cases (5 shown):
CCCNC(=O)[C@@H]1c2ccccc2C(=O)N(Cc2ccccc2OC)[C@H]1c1ccc(CO)cc1 = 0.239
O=C(NC1CC1)[C@@H]1c2ccccc2C(=O)N(Cc2cc(F)cc(C(F)(F)F)c2)[C@H]1c1ccc(CO)cc1 = 0.0706
CCCCC(=C=CC[C@@H](O)c1ccc(CO)o1)CCO = 0.148
NCCCCCNC(=O)[C@H]1C[C@H]2C(=O)N3CCC[C@H]3C(=O)N2[C@H]1c1ccc(O)cc1 = 1.07
COc1ccc(CCNC(=O)[C@@]2(c3ccc([N+](=O)[O-])cc3)CC(=O)N(CC34CC5CC(CC(C5)C3)C4)[C@@H]2c2ccc(CO)cc2I)cc1 = 0.757

Quick batch: composite z-score for everything below.
1. C=CC[C@@]1(C(=O)N2CCCCC2)N=C(c2ccc(OCCCO)cc2)O[C@@H]1c1ccccc1N=[N+]=[N-]
2. C=C(CCCC)/C(=C/C[C@H](OC(=O)c1ccncc1)c1ccc(OCCO)cc1)c1cc(C(=O)OC)ccc1OC
3. CN(C)CCCCNC(=O)[C@@H]1C[C@@H]2C(=O)N[C@@H](CCCCN)C(=O)N2[C@@H]1c1ccc(O)cc1

Output:
[1.05, 1.26, 0.677]
